# STUDY_TARGET: T1, Recombinant Human DLL4 (delta-like protein 4) (human, UniProt Q9NR61 27-524)
# T1 construct: Bought recombinant human DLL4 (R&D Systems Cat#1506-D4/CF); also called rHuman DLL4; Delta-like 4
# ASSAY_PROTOCOL: ELISA, DLL4 coated on plate, Fab at 0 nM (no-Fab background, second 0 row)
ENDPOINT: ELISA signal
Respond numerically, and do not add a unit to the figure.

Ask | Look up ELISA signal of Fab VH1-46_IGHD6-6*01_IGHJ1*01 S102A/S103P/S104F/H111F & L6_IGKJ1*01 S28H (Fab, V domains shown, Tested as a Fab; also called APFF & S28H) VH: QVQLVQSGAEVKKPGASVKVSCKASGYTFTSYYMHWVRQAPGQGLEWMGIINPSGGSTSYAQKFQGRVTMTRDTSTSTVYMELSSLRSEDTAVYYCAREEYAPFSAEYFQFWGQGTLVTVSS VL: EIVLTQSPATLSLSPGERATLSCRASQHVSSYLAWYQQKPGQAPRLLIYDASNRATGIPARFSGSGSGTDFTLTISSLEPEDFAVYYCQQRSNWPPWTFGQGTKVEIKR and report it.
Reply | 0
